Source of measurements: paper PMC12735718

# Test system: SVG p12 cells
# ASSAY PROCEDURE: MTT cell viability assay, SVG p12
# Assay type: cell-based, human
# EXPERIMENTAL SETUP: IC50 SVG p12 vs average IC50 in A-172, U87 and U87-TxR
ENDPOINT LABEL: Selectivity Index
# respond with the number and nothing more

Input CC1(C)CCC[C@]2(C)[C@@H](CC[C@@](C)(O)/C=C/c3ccc(CNCCCCCCCCNCC45CC6CC(CC(C6)C4)C5)o3)[C@](C)(O)CC[C@@H]12 [Compound 5] . Output Selectivity Index: 1.470

Input CC1(C)CCC[C@]2(C)[C@@H](CC[C@@](C)(O)/C=C/c3ccc(CNCCCCCCNCCC45CC6CC(CC(C6)C4)C5)o3)[C@](C)(O)CC[C@@H]12 [Compound 6] . Output Selectivity Index: 0.547

Input CC1(C)CCC[C@]2(C)[C@@H](CC[C@@](C)(O)/C=C/c3ccc(CNCCCCCCNCC45CC6CC(CC(C6)C4)C5)o3)[C@](C)(O)CC[C@@H]12 [Compound 4] . Output Selectivity Index: 0.686
